assay: NCI Yeast Anticancer Drug Screen. Data for the mec2-1 strain (AID 157); details: S. cerevisiae mec2-1 strain, at 50.0 µM (retest, dose inferred, filed as 5.0), hits give high values
Compounds without any hit were thinned out: in the full panel of roughly 79,000, 15% have a hit.
Task for the reader: assign each of the following molecules its reported growth inhibition.
Answer in %, number only, no unit symbol.

Ask: Field request: growth inhibition | item: `CC(C)CCCOC(=O)c1cc([N+](=O)[O-])cc([N+](=O)[O-])c1`
Reply: 27

Ask: Field request: growth inhibition | item: `C=Cc1ccccc1C1(O)C=CC(OC)(OC)C=C1`
Reply: 16

Ask: Field request: growth inhibition | item: `c1ccc2c3[nH]c(c2c1)=Nc1ccc(cc1)-c1nc2ccc(cc2o1)N=c1[nH]c(c2ccccc12)=Nc1ccc2nc(oc2c1)-c1ccc(cc1)N=3`
Reply: 93

Ask: Field request: growth inhibition | item: `COc1cccc(/C=C2\CCCc3ccccc3C2=O)c1`
Reply: 45

Ask: Field request: growth inhibition | item: `COc1ccc2c(c1)c(=O)c1c(NCCN(C)C)ccc3nnn2c31`
Reply: 14

Ask: Field request: growth inhibition | item: `CCC[CH2][Sn]([CH2]CCC)([O]C(=O)c1cccc(F)c1F)[O]C(=O)c1cccc(F)c1F`
Reply: 62

Ask: Field request: growth inhibition | item: `CN(CN(C)N=Nc1ccc(Cl)cc1)CN(C)N=Nc1ccc(Cl)cc1`
Reply: -8

Ask: Field request: growth inhibition | item: `Cc1cccc(N=Nc2ccc(O)cc2)c1`
Reply: 98

Ask: Field request: growth inhibition | item: `Cc1c(N2CCCC2)cc2c(c1NC(=O)c1ccccc1Cl)C(C)(C)CC2(C)C`
Reply: 89

Ask: Field request: growth inhibition | item: `C/C(CCn1[nH]c(=O)ccc1=O)=N\NS(=O)(=O)c1ccc(C)cc1`
Reply: 15

Ask: Field request: growth inhibition | item: `COc1ccc(/C=C2\N=C(c3ccco3)OC2=O)cc1Br`
Reply: -4

Ask: Field request: growth inhibition | item: COC(=O)c1ccc2c(c1)CC1(C2)Cc2ccccc2C1=O (stereo not drawn)
Reply: 92

Ask: Field request: growth inhibition | item: `N#Cc1c2c(c(N=[N+]=[N-])n3c1nc1ccccc13)CCCC2`
Reply: 98

Ask: Field request: growth inhibition | item: `N#C/C(=C/c1ccccc1B(O)O)C(=O)O`
Reply: -36

Ask: Field request: growth inhibition | item: `c1ccc2c(c1)C[N+]1(CCCCCCC1)C2`
Reply: 64

Ask: Field request: growth inhibition | item: `COC(=O)c1c(COC(=O)NC(C)C)c2n(c1C)CS(=O)(=O)C2`
Reply: 5

Ask: Field request: growth inhibition | item: `S=C(Nc1ccc(N=Nc2ccccc2)cc1)SCc1ccccc1`
Reply: 25

Ask: Field request: growth inhibition | item: `COc1ccc(C(=O)Nc2ccc(Cl)cc2)cc1`
Reply: -12

Ask: Field request: growth inhibition | item: CN(C)c1cc2c(cc1[N+](=O)[O-])-c1ccccc1C2O (stereo not drawn)
Reply: 28

Ask: Field request: growth inhibition | item: `COc1ccc(/C=C/c2cc(OC)c(OC)c(OC)c2)cc1O[Si](C)(C)C(C)(C)C`
Reply: -3

Ask: Field request: growth inhibition | item: `CCN1C2=NCCN2S(=O)(=O)c2ccccc21`
Reply: 9

Ask: Field request: growth inhibition | item: `CC(CCN)(CCN)[N+](=O)[O-]`
Reply: -27

Ask: Field request: growth inhibition | item: C/C(=N\OS(=O)(=O)O)SC1OC(CO)C(O)C(O)C1O (stereo not drawn)
Reply: -13

* * *

assay: NCI Yeast Anticancer Drug Screen. Data for the mlh1 rad18 strain (AID 175); settings: S. cerevisiae mlh1 rad18 strain growth inhibition; at 50.0 µM (retest, dose inferred, filed as 5.0); hits give high values
This is part of a sample that, as a whole, favours compounds with a hit. Of some 79,000 tested, about 15% had one in any assay.
Task for the reader: assign each of the following molecules its reported growth inhibition.
Answer in %, number only, no unit symbol.

Ask: Field request: growth inhibition | item: COC(=O)C1C(O)C(C)C(=O)C(C)/C=C\C=C(C)C(=O)Nc2c(C)c(OC(C)=O)c3c(c2O)C(=O)C(C)=C2OCOC(=C23)C(C)=CC(C)(O)C(O)C(C)C1O (stereo not given)
Reply: 68

Ask: Field request: growth inhibition | item: `CC(=O)Nc1ccc2c(c1)Cc1cccc(F)c1-2`
Reply: 1

Ask: Field request: growth inhibition | item: `C=Cc1ccccc1C1(O)C=CC(OC)(OC)C=C1`
Reply: 32

Ask: Field request: growth inhibition | item: `Cc1cc(NCCCCCCNc2cc(C)nc3cc(N(C)C)ccc23)c2ccc(N(C)C)cc2n1`
Reply: 92

Ask: Field request: growth inhibition | item: `N#CS/C(C(Cl)=C(Cl)Cl)=C(/Cl)[N+](=O)[O-]`
Reply: 99

* * *

Task for the reader: assign each of the following molecules its reported growth inhibition.
Experiment: NCI Yeast Anticancer Drug Screen. Data for the mec2-1 strain (AID 157)
Conditions: S. cerevisiae mec2-1 strain, at 50.0 µM, hits give high values
Procedure: Growth inhibition of yeast strains with defined genetic alterations is measured as a screen for potential anti-cancer activity. Selected strains with alterations in DNA damage repair or cell cycle control were exposed to compounds and growth inhibition was measured relative to vehicle treated controls. The strain used in this assay is mec2-1
The panel holds about 79,000 compounds, 15% with a hit somewhere; the sample as a whole holds those more often. Calls of active or inactive are those of the source. Rule as the data show it: active = growth inhibition above about 70%; inactive = the rest. Where a SMILES comes first, the peptide text is derived from it. The star is where a group is joined. Trt = c1ccc(C(c2ccccc2)(c2ccccc2)*)cc1; OtBu = CC(C)(C)O*

Ask: Field request: growth inhibition | item: `CCCCCCCCCCCCCCCCC#N`
Reply: -7.4% (inactive)

Ask: Field request: growth inhibition | item: CC(=O)NC1C(=O)CC(c2ccccc2)N(C)C1c1ccccc1 (stereo unspecified)
Reply: 6.55% (inactive)

Ask: Field request: growth inhibition | item: CCN(CCO)CC1OC(OC)C2OC(C)(C)OC12 (stereo unspecified)
Reply: 2.55% (inactive)

Ask: Field request: growth inhibition | item: `O=[N+]([O-])c1ccccc1NC1CCN(CCCC2(c3ccc(F)cc3)OCCO2)CC1`
Reply: 98% (active)

Ask: Field request: growth inhibition | item: `COc1cc(Cc2n[nH]c(=S)n2-c2ccccc2)c(S(N)(=O)=O)cc1OC`
Reply: 0.85% (inactive)

Ask: Field request: growth inhibition | item: `CCOC(=O)N1CCN(CCCCCCOc2ccc(C(C)(C)C)cc2)CC1`
Reply: 96% (active)

Ask: Field request: growth inhibition | item: CC(C)(C)OC(=O)CNC(=O)C(Cc1ccccc1)NC(=O)C(N)CSC(c1ccccc1)(c1ccccc1)c1ccccc1 (stereo not drawn) (H-Cys(Trt)-Phe-Gly-OtBu; configuration not given here)
Reply: 82.2% (active)

Ask: Field request: growth inhibition | item: CCN(CC)CC(O)CNc1ccc(NCC(O)CCl)c2c1C(=O)c1ccccc1C2=O (stereo unspecified)
Reply: -19.1% (inactive)

Ask: Field request: growth inhibition | item: `O/N=C1\c2ccccc2-c2ccc(Cl)cc21`
Reply: 50.5% (inactive)

Ask: Field request: growth inhibition | item: `O=C(O)C1CCCCC1.[Ag]`
Reply: 92% (active)

Ask: Field request: growth inhibition | item: `CN(c1ccccc1)c1c2c(oc(=O)c1Cl)-c1ccccc1SC2`
Reply: 46.2% (inactive)

Ask: Field request: growth inhibition | item: `CCOC(=O)C(/C=N\C(=S)Nc1ccc(Cl)c(Cl)c1)=C(/O)c1ccccc1`
Reply: 69% (inactive)

Ask: Field request: growth inhibition | item: `O=C(O)CC/C(=N\Nc1ccccc1)C(=O)O`
Reply: 98% (active)

Ask: Field request: growth inhibition | item: CCC(Cl)COP(=O)(OC(c1ccc(Cl)c(Cl)c1)P(=O)(OCC(Cl)CC)OCC(Cl)CC)C(CC)CCl (stereo unspecified)
Reply: 96.2% (active)

Ask: Field request: growth inhibition | item: `COc1cc2c(c(-c3cn(C)c4ccccc34)c1OC)OCO2`
Reply: 15.3% (inactive)

Ask: Field request: growth inhibition | item: `O=c1c(Cl)c(Cl)c(=O)c2sc3cc(Cl)ccc3[nH]c1=2`
Reply: 95% (active)

Ask: Field request: growth inhibition | item: CN(C)c1cc2c(cc1[N+](=O)[O-])-c1ccccc1C2O (stereo unspecified)
Reply: 29.9% (inactive)

Ask: Field request: growth inhibition | item: `COc1ccc(C(=O)Cc2ccc(Cl)cc2)cc1OC`
Reply: 2.65% (inactive)

Ask: Field request: growth inhibition | item: `C[N+](C)(CCO)Cc1ccccc1`
Reply: 1.6% (inactive)

Ask: Field request: growth inhibition | item: `NC(=Nc1cc2ccccc2c2ccccc12)Nc1cc2ccccc2c2ccccc12`
Reply: 77.2% (active)

Ask: Field request: growth inhibition | item: `c1ccc(OCC2c3ccccc3Nc3ccccc32)cc1`
Reply: 28.6% (inactive)

Ask: Field request: growth inhibition | item: `FC(F)(F)c1nc2cc(SSc3cc4nc(C(F)(F)F)[nH]c4cc3Cl)c(Cl)cc2[nH]1`
Reply: 93.2% (active)

Ask: Field request: growth inhibition | item: `O=C1C(CCl)=CS(=O)(=O)c2ccccc21`
Reply: 99.3% (active)

Ask: Field request: growth inhibition | item: `O=C1/C(=C/c2cccc(Br)c2)CCc2ccccc21`
Reply: 18.4% (inactive)

Ask: Field request: growth inhibition | item: CCCOC(=O)C(Br)C(Br)C(=O)OCCC (stereo unspecified)
Reply: 93% (active)

Ask: Field request: growth inhibition | item: `Cc1cc2c(c([N+](=O)[O-])c1C)C(=O)C(Br)=C(N)C2=O`
Reply: 97.8% (active)

Ask: Field request: growth inhibition | item: CN(C)c1nc(Cl)nc2c1ncn2C1OCC(O)C(O)C1O (stereo unspecified)
Reply: 22% (inactive)

Ask: Field request: growth inhibition | item: `O=C1/C(=C/c2cccc(O)c2)COc2ccccc21`
Reply: 96.1% (active)

Ask: Field request: growth inhibition | item: CC(C)(Br)C(Br)C(=O)C(Br)C(C)(C)Br (stereo unspecified)
Reply: 48.6% (inactive)

Ask: Field request: growth inhibition | item: `Cc1c2c(c(C)c3c1sc1ccccc13)CCN=C2`
Reply: 49.9% (inactive)

Ask: Field request: growth inhibition | item: COc1cc(O)c2c(c1)C(=O)c1cc3c(c(O)c1C2=O)C(OC1OC(C)C(O)C(O)C1OC)C(OC)C(C)(O)C3=O (stereo unspecified)
Reply: 93.4% (active)

Ask: Field request: growth inhibition | item: `[N-]=[N+]=Nc1c([N+](=O)[O-])c(Cl)nc2ccccc12`
Reply: 90.7% (active)

Ask: Field request: growth inhibition | item: `CCOC(=O)c1cc(Cc2ccccc2)c(=O)n(C)c1-c1ccccc1`
Reply: 3.1% (inactive)

Ask: Field request: growth inhibition | item: `O=C(CC(c1ccccc1)c1ccccc1)NCCCCN1CCCCCCC1`
Reply: -9% (inactive)

Ask: Field request: growth inhibition | item: `O=[N+]([O-])c1ccc(-c2nc(/C=N/N3CCCCC3)cs2)o1`
Reply: 43.5% (inactive)

Ask: Field request: growth inhibition | item: ON1CCc2c([nH]c3ccccc23)C1c1ccc(Cl)cc1 (stereo unspecified)
Reply: 34.4% (inactive)

Ask: Field request: growth inhibition | item: `Cn1cnc2[nH]c(Cl)nc(=S)c21`
Reply: -8.25% (inactive)

Ask: Field request: growth inhibition | item: `Cc1ccc(C)c(C(=O)/C=C/C(=O)O)c1`
Reply: 70.7% (active)

Ask: Field request: growth inhibition | item: `CCOC(=O)C(CCOC)C(=O)OCC`
Reply: 70.9% (active)

Ask: Field request: growth inhibition | item: CCC(C)Sc1nc2c([nH]1)c(=S)n(C)c(=O)n2C (stereo unspecified)
Reply: 96% (active)

Ask: Field request: growth inhibition | item: `CN1CCN(CCCN)CC1`
Reply: 25.1% (inactive)

Ask: Field request: growth inhibition | item: `Cc1cc(Cl)nc2ccc(Cc3ccc4nc(Cl)cc(C)c4c3)cc12`
Reply: 2.45% (inactive)

Ask: Field request: growth inhibition | item: CCCCCCCCCCCCCCCCOCC(Cl)COP(=O)(O)OP(=O)(O)OCC1OC(n2cc(C)c(=O)[nH]c2=O)CC1O (stereo unspecified)
Reply: 59.6% (inactive)

Ask: Field request: growth inhibition | item: `CCCCCCNC(=S)N/N=C(\C)c1ccccn1`
Reply: 85.7% (active)

Ask: Field request: growth inhibition | item: `CCCCCc1[nH]nc(C(=O)OC)c1N=NN1CCOCC1`
Reply: 99.6% (active)

Ask: Field request: growth inhibition | item: `Clc1ccc(C2=CCN3CC=C(c4ccc(Cl)cc4)C23)cc1`
Reply: 99.9% (active)
